- test-target: human TPO receptor (hTPOR) (Homo sapiens, UniProt P40238)
- Construct: expressed in transfected cells; host or cells: BaF-B03 (murine IL-3 dependent cell line)
- Sequence (P40238 26-635): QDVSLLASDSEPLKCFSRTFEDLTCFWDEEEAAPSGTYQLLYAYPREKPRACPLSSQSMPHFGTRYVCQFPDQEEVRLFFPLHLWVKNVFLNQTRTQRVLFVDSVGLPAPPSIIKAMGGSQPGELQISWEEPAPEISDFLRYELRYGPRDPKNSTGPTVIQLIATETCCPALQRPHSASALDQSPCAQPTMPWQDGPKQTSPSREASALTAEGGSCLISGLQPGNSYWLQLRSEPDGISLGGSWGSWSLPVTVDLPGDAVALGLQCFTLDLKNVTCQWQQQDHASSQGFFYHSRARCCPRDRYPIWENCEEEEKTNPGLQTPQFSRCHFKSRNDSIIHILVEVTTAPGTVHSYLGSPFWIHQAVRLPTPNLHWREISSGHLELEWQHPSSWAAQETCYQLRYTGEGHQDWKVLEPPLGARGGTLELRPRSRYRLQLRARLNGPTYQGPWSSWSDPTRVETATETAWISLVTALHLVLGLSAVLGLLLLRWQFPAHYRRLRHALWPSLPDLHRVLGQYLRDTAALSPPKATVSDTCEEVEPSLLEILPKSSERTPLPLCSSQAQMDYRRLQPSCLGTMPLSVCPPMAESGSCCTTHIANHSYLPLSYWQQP
- protocol-details: Thrombopoietic activity: proliferation of TPO dependent BaF/hTPOR cells (WST-1, absorbance at 450 nm)
- Assay type: cell-based
- recorded-conditions: 20 h + 4 h WST-1, ED50 = half concentration of the concentration showing the maximum thrombopoietic activity, Table 1
readout-label: EC50 (nM)
Value expressed in nM; do not type the unit.

**Q:** Given the compound CCOC(c1cccc(-c2csc(NC(=O)c3cc(Cl)c(C=C(C)C(=O)O)c(Cl)c3)n2)c1F)C(C)(C)C (centres unmarked) , write its reported EC50.
**A:** 2.7

**Q:** Give a short answer stating reported EC50 for CCCCOCCCc1cccc(-c2csc(NC(=O)c3cc(F)c(/C=C(\C)C(=O)O)c(F)c3)n2)c1OC .
**A:** 14.6

**Q:** Name the recorded EC50 of the compound listed here: CC(=Cc1c(Cl)cc(C(=O)Nc2nc(-c3cccc(CCCOCC(C)(C)C)c3F)cs2)cc1Cl)C(=O)O
**A:** 0.91

**Q:** // fetch EC50 given entry COc1c(CCCOCC(C)(C)C)cccc1-c1csc(NC(=O)c2cc(Cl)c(/C=C(\C)C(=O)O)c(Cl)c2)n1
**A:** 19

**Q:** State, in one line, measured EC50 of CC(=Cc1c(Cl)cc(C(=O)Nc2nc(-c3cccc(CCCOCCCC(C)C)c3F)cs2)cc1Cl)C(=O)O
**A:** 1.02

**Q:** Report measured EC50; entry is CCCCCCOCCc1cccc(-c2csc(NC(=O)c3cc(F)c(/C=C(\C)C(=O)O)c(F)c3)n2)c1OC
**A:** 15.6

**Q:** Give the reported value of EC50 for this record: CCCCCOC(CC)c1cccc(-c2csc(NC(=O)c3cc(F)c(C=C(C)C(=O)O)c(F)c3)n2)c1F (centres unmarked)
**A:** 0.73

**Q:** Please report the measured EC50 for CCCCCCCOCc1cccc(-c2csc(NC(=O)c3cc(Cl)c(/C=C(\C)C(=O)O)c(Cl)c3)n2)c1OC
**A:** 13.2

**Q:** For the compound CCCCCOC(CCCC)c1cccc(-c2csc(NC(=O)c3cc(F)c(C=C(C)C(=O)O)c(F)c3)n2)c1F (centres unmarked) , report EC50.
**A:** 0.39

**Q:** Specify reported EC50 for the compound shown: COC(CCC(C)C)c1cccc(-c2csc(NC(=O)c3cc(Cl)c(C=C(C)C(=O)O)c(Cl)c3)n2)c1F (centres unmarked)
**A:** 0.75

**Q:** For the compound COc1c(COCCC(C)C)cccc1-c1csc(NC(=O)c2cc(F)c(/C=C(\C)C(=O)O)c(F)c2)n1 , give its measured EC50 value.
**A:** 12.6

**Q:** Using the record for CCC(CC)COCCCc1cccc(-c2csc(NC(=O)c3cc(F)c(C=C(C)C(=O)O)c(F)c3)n2)c1F , state its measured EC50.
**A:** 1.65

**Q:** Answer with the recorded EC50 for the compound listed here: COc1c(-c2csc(NC(=O)c3cc(Cl)c(/C=C(\C)C(=O)O)c(Cl)c3)n2)cccc1C(CC(C)(C)C)OC (centres unmarked)
**A:** 19.9

**Q:** Input CCCCCc1cccc2c1CCc1sc(NC(=O)c3cc(F)c(C=C(C)C(=O)O)c(F)c3)nc1-2 , output reported EC50.
**A:** 4
